pIC50: −log10 of the molar value.
Record type: pIC50 measurement. Applies to: DGKζ (Homo sapiens (Human), UniProt Q13574)
outcome measure: pIC50

>  <compound>
CC#CCn1cc2c(n1)c(N1C[C@@H](CC)N(C(C)c3ccc4c(n3)OCC4)C[C@@H]1C)cc(=O)n2C (stereo partly drawn) [Compound A200]

>  <target under test>
DGKζ (Homo sapiens (Human), UniProt Q13574)
Sequence (Q13574 other isoform, or with tags, fused parts or gaps): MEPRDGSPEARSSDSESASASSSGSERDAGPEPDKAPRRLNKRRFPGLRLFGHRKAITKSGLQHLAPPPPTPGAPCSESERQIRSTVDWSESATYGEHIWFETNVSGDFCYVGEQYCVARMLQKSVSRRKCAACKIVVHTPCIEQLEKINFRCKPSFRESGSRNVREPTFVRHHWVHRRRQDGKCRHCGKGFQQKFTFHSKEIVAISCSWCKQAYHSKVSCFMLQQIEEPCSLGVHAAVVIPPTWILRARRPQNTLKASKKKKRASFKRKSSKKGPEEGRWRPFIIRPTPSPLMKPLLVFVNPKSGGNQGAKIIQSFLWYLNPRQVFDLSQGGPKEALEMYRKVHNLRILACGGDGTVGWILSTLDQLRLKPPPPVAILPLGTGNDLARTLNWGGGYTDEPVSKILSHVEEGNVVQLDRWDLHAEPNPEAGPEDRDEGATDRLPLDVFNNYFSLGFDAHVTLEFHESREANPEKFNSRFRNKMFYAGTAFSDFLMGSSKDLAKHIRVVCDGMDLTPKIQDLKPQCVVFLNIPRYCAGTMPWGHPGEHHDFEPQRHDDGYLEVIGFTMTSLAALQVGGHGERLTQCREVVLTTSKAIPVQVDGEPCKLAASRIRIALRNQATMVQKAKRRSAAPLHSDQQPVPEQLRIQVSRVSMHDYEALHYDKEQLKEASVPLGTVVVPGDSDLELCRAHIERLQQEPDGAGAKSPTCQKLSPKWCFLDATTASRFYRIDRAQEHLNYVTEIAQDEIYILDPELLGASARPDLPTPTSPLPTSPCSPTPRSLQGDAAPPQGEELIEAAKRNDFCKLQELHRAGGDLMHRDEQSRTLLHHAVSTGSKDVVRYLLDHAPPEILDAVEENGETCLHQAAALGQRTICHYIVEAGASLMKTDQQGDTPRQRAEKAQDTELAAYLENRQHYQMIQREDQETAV

>  <value relation sign>
=

>  <assay value>
6.00

$$$$
>  <compound>
CC[C@H]1CN(C(C)c2ccc(C(C)C)cc2)[C@H](CC)CN1c1cc(=O)n(C)c2cn(CC#N)nc12 (stereo partly drawn) [Compound A31]

>  <target under test>
DGKζ (Homo sapiens (Human), UniProt Q13574)

>  <value relation sign>
=

>  <assay value>
6.67

$$$$
>  <compound>
CC[C@H]1CN(C(C)c2ccc(C(C)(F)F)nc2)[C@H](CC)CN1c1cc(=O)n(C)c2cn(CC#N)nc12 (stereo partly drawn) [Compound A199]

>  <target under test>
DGKζ (Homo sapiens (Human), UniProt Q13574)

>  <value relation sign>
=

>  <assay value>
6.95

$$$$
>  <compound>
CC[C@H]1CN(C(C)c2ccc(NC(C)=O)c(O)c2F)[C@H](CC)CN1c1cc(=O)n(C)c2cn(CC#N)nc12 (single isomer, unassigned) [Compound A87b]

>  <target under test>
DGKζ (Homo sapiens (Human), UniProt Q13574)

>  <value relation sign>
<

>  <assay value>
5.00

$$$$
>  <compound>
CC[C@H]1CN(C(C)c2ccc(CN3CCC(OC)C3)cc2)[C@H](CC)CN1c1cc(=O)n(C)c2cn(CC#N)nc12 (single isomer, unassigned) [Compound A203a]

>  <target under test>
DGKζ (Homo sapiens (Human), UniProt Q13574)

>  <value relation sign>
=

>  <assay value>
5.57

$$$$
>  <compound>
CC[C@@H]1CN(c2cc(=O)n(C)c3cn(CC#N)nc23)[C@@H](C)CN1[C@H](C)c1ccn2nc(C)c(F)c2n1 (single isomer, unassigned) [Compound A173b]

>  <target under test>
DGKζ (Homo sapiens (Human), UniProt Q13574)

>  <value relation sign>
=

>  <assay value>
5.53

$$$$
>  <compound>
CC[C@H]1CN(C(C)c2ccn3nc(C)c(F)c3n2)[C@H](CC)CN1c1cc(=O)n(C)c2cn(CC#N)nc12 (single isomer, unassigned) [Compound A160a]

>  <target under test>
DGKζ (Homo sapiens (Human), UniProt Q13574)

>  <value relation sign>
=

>  <assay value>
5.39

$$$$
>  <compound>
CC[C@@H]1CN(c2cc(=O)n(C)c3cn(CC#N)nc23)[C@@H](C)CN1C(C)c1ccc2ccsc2n1 (stereo partly drawn) [Compound A130]

>  <target under test>
DGKζ (Homo sapiens (Human), UniProt Q13574)

>  <value relation sign>
=

>  <assay value>
7.34

$$$$
>  <compound>
CCC(c1ccc(C(F)(F)F)cc1)N1C[C@H](CC)N(c2cc(=O)n(C)c3cn(CC#N)nc23)C[C@H]1CC (single isomer, unassigned) [Compound A135a]

>  <target under test>
DGKζ (Homo sapiens (Human), UniProt Q13574)

>  <value relation sign>
=

>  <assay value>
7.02

$$$$
